For each of the sequences below, state its PBM binding z-score.
system: RARb homodimer (NR concentration 270 nM); test: PBM binding z-score (relative to random genomic background probes); higher = stronger binding; sequences stand for … in GC…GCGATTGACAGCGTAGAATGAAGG
Simply state the number, no unit and no words.

Summary for this sequence, "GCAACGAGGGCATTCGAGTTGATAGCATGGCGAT" : PBM binding z-score is 0.663

The sequence listed as "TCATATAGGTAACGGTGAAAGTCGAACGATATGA" shows PBM binding z-score equal to -0.17

Value of measured PBM binding z-score for the entry "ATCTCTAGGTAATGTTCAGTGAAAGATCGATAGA" : -0.207

Record "CAAACTAGGTCAAAGGTCAATGTCGAGCCAACCA" , field PBM binding z-score: 5.2

Just so you know, measured PBM binding z-score for "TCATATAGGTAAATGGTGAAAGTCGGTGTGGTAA" came out at 0.19

Kindly note the recorded PBM binding z-score for "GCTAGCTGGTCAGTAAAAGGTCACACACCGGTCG" , which is 4.99

Query "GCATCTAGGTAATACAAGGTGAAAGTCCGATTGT" yields PBM binding z-score of 0.893

Form field PBM binding z-score, entry "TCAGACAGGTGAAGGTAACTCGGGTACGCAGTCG" : 1.04

PBM binding z-score reading for "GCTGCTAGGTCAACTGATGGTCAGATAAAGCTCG" : 3.52

response.value for "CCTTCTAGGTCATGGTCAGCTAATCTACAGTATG" (field: PBM binding z-score) = 3.46

Entry "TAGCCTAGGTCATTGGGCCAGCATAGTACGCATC" — recorded PBM binding z-score = 2.94

sequence "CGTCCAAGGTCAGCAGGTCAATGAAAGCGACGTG" , PBM binding z-score observed: 5.24
